target: somatostatin subtype 2 rat receptor (rat, UniProt P30680 1-369); experiment: cell-based or functional assay
Sequence (P30680 whole entry): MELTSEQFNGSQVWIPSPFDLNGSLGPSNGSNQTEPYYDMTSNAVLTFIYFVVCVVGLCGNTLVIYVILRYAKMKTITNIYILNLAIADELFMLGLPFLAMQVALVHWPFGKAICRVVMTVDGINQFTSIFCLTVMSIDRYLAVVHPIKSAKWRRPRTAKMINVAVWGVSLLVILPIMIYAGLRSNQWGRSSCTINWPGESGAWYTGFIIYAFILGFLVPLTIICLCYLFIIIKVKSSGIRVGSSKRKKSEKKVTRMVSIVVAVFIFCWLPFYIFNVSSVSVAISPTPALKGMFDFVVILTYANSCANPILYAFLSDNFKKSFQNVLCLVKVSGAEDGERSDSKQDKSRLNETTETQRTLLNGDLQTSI
Bridges are numbered along the chain shown (N, C = ends). Where no end group is shown, it is not given here. [ ]: non-standard residue; d: D form.
Parameter IC50 (nM), inhibition of GH release from primary cultures of rat pituitary cells: see the listing below.
quantity-name: IC50 (nM), inhibition of GH release from primary cultures of rat pituitary cells

>  <binder>
[dS][dS][dS][dS][dS]D[dY][dS]CF[dW]KTCT-NH2 (disulfide 9-14; N-terminus assumed; SMILES C[C@@H](O)[C@H](NC(=O)[C@@H]1CSSC[C@H](NC(=O)[C@@H](CO)NC(=O)[C@@H](Cc2ccc(O)cc2)NC(=O)[C@H](CC(=O)O)NC(=O)[C@@H](CO)NC(=O)[C@@H](CO)NC(=O)[C@@H](CO)NC(=O)[C@@H](CO)NC(=O)[C@H](N)CO)C(=O)N[C@@H](Cc2ccccc2)C(=O)N[C@H](Cc2c[nH]c3ccccc23)C(=O)N[C@@H](CCCCN)C(=O)N[C@@H]([C@@H](C)O)C(=O)N1)C(N)=O) [D-Ser-D-Ser-D-Ser-D-Ser-D-Ser-L-Asp-D-Tyr-D-Ser-cyclo[L-Cys-L-Phe-D-Trp-L-Lys-L-Thr-L-Cys]-L-Thr-NH2]

>  <numeric-value>
7.55

$$$$
>  <binder>
[dS][dS][dS][dS][dS]T[dY][dS]CF[dW]KTCT-NH2 (disulfide 9-14; N-terminus assumed; SMILES C[C@@H](O)[C@H](NC(=O)[C@@H]1CSSC[C@H](NC(=O)[C@@H](CO)NC(=O)[C@@H](Cc2ccc(O)cc2)NC(=O)[C@@H](NC(=O)[C@@H](CO)NC(=O)[C@@H](CO)NC(=O)[C@@H](CO)NC(=O)[C@@H](CO)NC(=O)[C@H](N)CO)[C@@H](C)O)C(=O)N[C@@H](Cc2ccccc2)C(=O)N[C@H](Cc2c[nH]c3ccccc23)C(=O)N[C@@H](CCCCN)C(=O)N[C@@H]([C@@H](C)O)C(=O)N1)C(N)=O) [D-Ser-D-Ser-D-Ser-D-Ser-D-Ser-L-Thr-D-Tyr-D-Ser-cyclo[L-Cys-L-Phe-D-Trp-L-Lys-L-Thr-L-Cys]-L-Thr-NH2]

>  <numeric-value>
0.72

$$$$
>  <binder>
[dS][dS][dS][dS][dS]K[dY][dS]CF[dW]KTCT-NH2 (disulfide 9-14; not fully specified; printed as D-Ser-D-Ser-D-Ser-D-Ser-D-Ser-L-Lys-D-Tyr-D-Ser-cyclo[L-Cys-L-Phe-D-Trp-L-Lys-L-Thr-L-Cys]-L-Thr-NH2) [D-Ser-D-Ser-D-Ser-D-Ser-D-Ser-L-Lys-D-Tyr-D-Ser-cyclo[L-Cys-L-Phe-D-Trp-L-Lys-L-Thr-L-Cys]-L-Thr-NH2]

>  <numeric-value>
0.086

$$$$

Where do the numbers come from? From patent US20050070470A1.
